Value source: patent US20230233569A1

Record form. Attribute: IC50. Fill in for each entry.
biological target: KRAS Q61H (Homo sapiens, UniProt P01116+P62937, Q61H); experiment: Disruption of BRAF RBD interaction with Ras (FRET / MOA assay, with Cyclophilin A); assay type: biochemical; details: KRAS Q61H; read-out: KRAS Q61H FRET data IC50
Sequence (P01116 1-169 isoform P01116-2 Q61H limits assumed): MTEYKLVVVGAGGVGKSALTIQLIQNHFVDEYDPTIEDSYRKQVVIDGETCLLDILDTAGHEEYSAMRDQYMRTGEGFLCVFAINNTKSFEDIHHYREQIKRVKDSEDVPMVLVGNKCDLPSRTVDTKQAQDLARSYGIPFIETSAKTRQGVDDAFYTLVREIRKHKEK
Sequence (P62937 whole entry): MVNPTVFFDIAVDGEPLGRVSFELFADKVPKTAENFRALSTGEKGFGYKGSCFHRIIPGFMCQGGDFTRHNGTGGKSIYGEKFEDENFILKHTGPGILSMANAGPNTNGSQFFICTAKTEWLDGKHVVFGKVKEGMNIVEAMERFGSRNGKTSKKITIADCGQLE

Entry C=CC(=O)N1CCO[C@H]2CN(C(=O)N(C)[C@H](C(=O)N[C@H]3Cc4cccc(n4)-c4ccc5c(c4)c(c(-c4cccnc4[C@H](C)OC)n5CC(F)(F)F)CC(C)(C)COC(=O)C4CCCN(N4)C3=O)C(C)C)C[C@H]21 (some centres unmarked) [Example A595] , IC50 reported as 100 to 1000 nM

Entry CCn1c(-c2cc(C3CCN(C)CC3)cnc2[C@H](C)OC)c2c3cc(ccc31)-c1cc(O)cc(c1)C[C@H](NC(=O)[C@H](C(C)C)N(C)C(=O)[C@@H]1OCC[C@@H]1c1ccccc1)C(=O)N1CCC[C@H](N1)C(=O)OCC(C)(C)C2 (atropisomer, axis not shown) [Example A577] , IC50 reported as < 10 nM

Entry CCn1c(-c2cccnc2[C@H](C)OC)c2c3cc(ccc31)-c1csc(n1)C[C@H](NC(=O)[C@H](C(C)C)N(C)C(=O)N1CC(N)(C#N)C1)C(=O)N1CCC[C@H](N1)C(=O)OCC(C)(C)C2 [Example A456] , IC50 reported as 100 to 1000 nM

Entry CCn1c(-c2cccnc2[C@H](C)OC)c2c3cc(ccc31)-c1csc(n1)C[C@H](NC(=O)[C@H](C(C)C)N(C)C(=O)N1CCN(C(=O)CCN(C)C)CC1)C(=O)N1CCC[C@H](N1)C(=O)OCC(C)(C)C2 [Example A459] , IC50 reported as 10 to 100 nM

Entry CCn1c(-c2cccnc2[C@H](C)OC)c2c3cc(ccc31)-c1csc(n1)C[C@H](NC(=O)[C@H](C(C)C)N(C)C(=O)N1CC(CN(C)C)(OC)C1)C(=O)N1CCC[C@H](N1)C(=O)OCC(C)(C)C2 (atropisomer, axis not shown) [Example A575] , IC50 reported as 1000 to 10000 nM

Entry C=CC(=O)N1CCOC2(CCN(C(=O)N(C)[C@H](C(=O)N[C@H]3CN4CCC=C(C4)c4ccc5c(c4)c(c(-c4cccnc4[C@H](C)OC)n5CC)CC(C)(C)COC(=O)[C@@H]4CCCN(N4)C3=O)C(C)C)CC2)C1 [Example A563] , IC50 reported as 1000 to 10000 nM

Entry CCn1c(-c2cccnc2[C@H](C)OC)c2c3cc(ccc31)-c1csc(n1)C[C@H](NC(=O)[C@H](C(C)C)N(C)C(=O)N1CC[C@]13CCCNC3)C(=O)N1CCC[C@H](N1)C(=O)OCC(C)(C)C2 [Example A434] , IC50 reported as 10 to 100 nM

Entry CCn1c(-c2cc(N3CCN(C)CC3)cnc2[C@H](C)OC)c2c3cc(ccc31)-c1csc(n1)C[C@H](NC(=O)[C@H](C(C)C)N(C)C(=O)N1C[C@@H](C)N(C)C[C@H]1C)C(=O)N1CCC[C@H](N1)C(=O)OCC(C)(C)C2 (atropisomer, axis not shown) [Example A476] , IC50 reported as 100 to 1000 nM

---

Record form. Attribute: IC50. Fill in for each entry.
biological target: NRAS WT (Homo sapiens, UniProt P01111+P62937); experiment: Ras-Raf disruption / FRET / MOA assay (BRAF RBD); type: biochemical
Sequence (P01111 whole entry, one chain of several): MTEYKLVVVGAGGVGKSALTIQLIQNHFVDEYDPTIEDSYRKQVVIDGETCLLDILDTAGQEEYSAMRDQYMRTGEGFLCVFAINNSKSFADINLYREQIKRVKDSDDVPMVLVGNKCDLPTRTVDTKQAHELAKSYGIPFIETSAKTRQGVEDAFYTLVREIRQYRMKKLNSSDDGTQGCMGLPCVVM

Tested on NRAS WT (Homo sapiens, UniProt P01111+P62937), the item CCn1c(-c2cccnc2[C@H](C)OC)c2c3cc(ccc31)-c1cc(O)cc(c1)C[C@H](NC(=O)[C@H](C(C)C)N(C)C(=O)CN(C)C(=O)[C@H]1CN1CCCOC(C)=O)C(=O)N1CCC[C@H](N1)C(=O)OCC(C)(C)C2 (some centres unmarked) [Example 266] showed IC50 equal to 100 to 1000 nM

Tested on NRAS WT (Homo sapiens, UniProt P01111+P62937), the item CCn1c(-c2cccnc2[C@H](C)OC)c2c3cc(ccc31)-c1cc(O)cc(c1)C[C@H](NC(=O)[C@H](C(C)C)N(C)C(=O)CN(C)C(=O)[C@]1(C)CN1)C(=O)N1CCC[C@H](N1)C(=O)OCC(C)(C)C2 [Example 257] showed IC50 equal to 10 to 100 nM

---

Record form. Attribute: IC50. Fill in for each entry.
molecular target: KRAS G13D (Homo sapiens, UniProt P01116+P62937, G13D); assay: Disruption of BRAF RBD interaction with Ras (FRET / MOA assay, with Cyclophilin A); type: biochemical; details: KRAS G13D; read-out: KRAS G13D FRET data IC50
Sequence (P01116 1-169 isoform P01116-2 G13D limits assumed, one chain of several): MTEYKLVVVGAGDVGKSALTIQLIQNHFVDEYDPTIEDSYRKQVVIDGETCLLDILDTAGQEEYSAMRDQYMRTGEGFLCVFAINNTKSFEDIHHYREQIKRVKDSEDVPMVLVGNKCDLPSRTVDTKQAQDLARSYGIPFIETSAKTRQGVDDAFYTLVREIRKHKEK

Entry C=CC(=O)N1CCOC2(CCN(C(=O)N(C)[C@H](C(=O)N[C@H]3CN4CCC=C(C4)c4ccc5c(c4)c(c(-c4cccnc4[C@H](C)OC)n5CC)CC(C)(C)COC(=O)[C@@H]4CCCN(N4)C3=O)C(C)C)CC2)C1 [Example A563] , IC50 reported as 1000 to 10000 nM

Entry CCn1c(-c2cnccc2COC)c2c3cc(ccc31)-c1cc(O)cc(c1)C[C@H](NC(=O)[C@H](C(C)C)N(C)C(=O)[C@H]1CCNC1)C(=O)N1CCC[C@H](N1)C(=O)OCC(C)(C)C2 [Example A10] , IC50 reported as 10 to 100 nM

Entry CCn1c(-c2cccnc2[C@H](C)OC)c2c3cc(ccc31)-c1csc(n1)C[C@H](NC(=O)[C@H](C(C)C)N(C)C(=O)N1CC(OC(F)F)C1)C(=O)N1CCC[C@H](N1)C(=O)OCC(C)(C)C2 (atropisomer, axis not shown) [Example A302] , IC50 reported as 100 to 1000 nM

Entry CCn1c(-c2cc(N3CCN(C)CC3)cnc2[C@H](C)OC)c2c3cc(ccc31)-c1csc(n1)C[C@H](NC(=O)[C@H](C(C)C)N(C)C(=O)N1CC(N(C)C)C1)C(=O)N1CCC[C@H](N1)C(=O)OCC(C)(C)C2 (atropisomer, axis not shown) [Example A477] , IC50 reported as 100 to 1000 nM

---

Record form. Attribute: pIC50. Fill in for each entry.
molecular target: KRAS G12C (Homo sapiens, UniProt P01116+P62937, G12C); assay: Ras-Raf disruption / FRET / MOA assay (BRAF RBD); format: biochemical; conditions: Ras-Raf disruption, with Cyclophilin A; read-out: KRAS G12C FRET data IC50
Sequence (P01116 1-169 isoform P01116-2 G12C limits assumed, one chain of several): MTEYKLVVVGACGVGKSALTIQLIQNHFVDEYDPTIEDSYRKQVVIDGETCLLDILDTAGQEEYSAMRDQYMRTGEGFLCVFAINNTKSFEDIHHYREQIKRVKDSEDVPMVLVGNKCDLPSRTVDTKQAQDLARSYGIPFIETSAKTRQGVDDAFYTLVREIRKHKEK
pIC50: −log10 of the molar value.

Tested on KRAS G12C (Homo sapiens, UniProt P01116+P62937, G12C), the item `CCn1c(-c2cccnc2[C@H](C)OC)c2c3cc(ccc31)-c1cc(O)cc(c1)C[C@H](NC(=O)[C@H](C(C)C)N(C)C(=O)[C@@H]1CCN(C(=O)[C@@H]3CN3)C1)C(=O)N1CCC[C@H](N1)C(=O)OCC(C)(C)C2` showed pIC50 equal to 7.00 to 8.00

Tested on KRAS G12C (Homo sapiens, UniProt P01116+P62937, G12C), the item CCn1c(-c2cccnc2[C@H](C)OC)c2c3cc(ccc31)-c1cc(O)cc(c1)C[C@H](NC(=O)[C@H](C(C)C)N(C)C(=O)[C@H]1C[C@H]3CC[C@@H](C1)N3C(=O)[C@H]1CN1)C(=O)N1CCC[C@H](N1)C(=O)OCC(C)(C)C2 (atropisomer, axis not shown) showed pIC50 equal to 7.00 to 8.00

---

biological target: KRAS WT (Homo sapiens, UniProt P01116+P62937); test: Disruption of BRAF RBD interaction with Ras (FRET / MOA assay, with Cyclophilin A); assay type: biochemical; details: KRAS WT; read-out: KRAS WT FRET data IC50
Sequence (P01116 1-169 isoform P01116-2 limits assumed, one chain of several): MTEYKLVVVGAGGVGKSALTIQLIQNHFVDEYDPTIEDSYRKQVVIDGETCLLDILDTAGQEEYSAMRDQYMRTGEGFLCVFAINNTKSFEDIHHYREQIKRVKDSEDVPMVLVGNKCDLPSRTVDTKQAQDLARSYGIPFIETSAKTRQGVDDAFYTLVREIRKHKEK
measurement_label: IC50

Entry CCn1c(-c2cccnc2[C@H](C)OC)c2c3cc(ccc31)-c1csc(n1)C[C@H](NC(=O)[C@H](C(C)C)N(C)C(=O)N1C[C@H](N)[C@@H](F)C1)C(=O)N1CCC[C@H](N1)C(=O)OCC(C)(C)C2 (atropisomer, axis not shown) [Example A567] , IC50 reported as 100 to 1000 nM

Entry C=CC(=O)N1CC[C@H](C(=O)N(C)[C@H](C(=O)N[C@H]2Cc3cc(O)cc(c3)-c3ccc4c(c3)c(c(-c3ccc(C5CCN(C)CC5)cc3)n4CC)CC(C)(C)COC(=O)[C@@H]3CCCN(N3)C2=O)C(C)C)C1 [Example A039] , IC50 reported as 1000 to 10000 nM

Entry CCn1c(-c2cnccc2COC)c2c3cc(ccc31)-c1cc(O)cc(c1)C[C@H](NC(=O)[C@H]([C@@H](C)OC)N(C)C(C)=O)C(=O)N1CCC[C@H](N1)C(=O)OCC(C)(C)C2 [Example A76] , IC50 reported as 100 to 1000 nM

Entry CCn1c(-c2cccnc2[C@H](C)OC)c2c3cc(ccc31)-c1csc(n1)C[C@H](NC(=O)[C@H](C(C)C)N(C)C(=O)N1CC[C@H](N(C)C)C1)C(=O)N1CCC[C@H](N1)C(=O)OCC(C)(C)C2 [Example A603] , IC50 reported as 100 to 1000 nM
